Cited source: patent US20080008707A1

target: D93, recombinant humanized IgG1 kappa antibody targeting denatured-collagen; experiment: competition ELISA on coated human dn-collagen IV
Square brackets hold non-standard residues; d marks the D form. Ends that are not written are not given here. Hyp = O=C(O)[C@@H]1C[C@@H](O)CN1
Outcome: yes for % inhibition of D93 binding to dn-collagen IV, peptide 1 µM of at least 8%; no for anything lower.

[in] Is the recorded value of % inhibition of D93 binding to dn-collagen IV, peptide 1 µM equal to or greater than 8% for this binder? PGP[Hyp]GP[Hyp]GP [synthetic peptide No. 1, … (SEQ ID NO: 29)]
[out] yes

[in] Is the recorded value of % inhibition of D93 binding to dn-collagen IV, peptide 1 µM equal to or greater than 8% for this binder? F[Hyp]GP[Hyp]GPDGL[Hyp]GSMGP[Hyp]G [synthetic peptide No. 7, … (SEQ ID NO: 36)]
[out] yes

[in] Determine whether measured % inhibition of D93 binding to dn-collagen IV, peptide 1 µM meets or exceeds 8% for L[Hyp]GT[Hyp]G [synthetic peptide No. 8, LPGTPG (SEQ ID NO: 27)]
[out] no

[in] Form field: % inhibition of D93 binding to dn-collagen IV, peptide 1 µM at least 8%? Entry: LPGP[Hyp]GP[Hyp]GP [synthetic peptide No. 5, … (SEQ ID NO: 20)]
[out] yes

[in] Reported % inhibition of D93 binding to dn-collagen IV, peptide 1 µM at or above 8%? [Hyp]GAKGLPGP[Hyp]GP[Hyp]GPY [synthetic peptide No. 12, … (SEQ ID NO: 2)]
[out] yes
